Here the recorded residual hCCL1 (100 nM) Gi2 response, protocol #3, mAb 0.5 µg/mL is given for each entry.
- systemName: human CCR8 (human, UniProt P51685 1-355)
- protocolDetails: cell-based or functional assay
recordedEndpoint: residual hCCL1 (100 nM) Gi2 response, protocol #3, mAb 0.5 µg/mL (%)

binder: anti-CCR8 mAb 1-5 (antibody, V domains shown, Murine hybridoma mAb) VH: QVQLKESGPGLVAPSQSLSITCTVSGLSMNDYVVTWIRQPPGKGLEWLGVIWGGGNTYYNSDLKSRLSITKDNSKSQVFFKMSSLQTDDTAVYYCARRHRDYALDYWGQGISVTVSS VL: DVVMTQTPLSLPVSLGDQASISCRSSQSLVYSNGNTYLHWYLQKPGQSPKLLIYKVSNRFSGVPDRFSGSGSGTDFTLKISRVEAEDLGVYFCSQSTYVPPTFGGGTKLEIK
unitString: %
testResult: 84
//
binder: anti-CCR8 mAb 1-2 (antibody, V domains shown, Murine hybridoma mAb) VH: EVQLVESGGGLVQPKGSLKLSCAASGFTFNTYAMNWVRQAPGKGLEWVARIRSKSNNYATYYADSVKDRFTISRDDSQSMLYLQMNNLKTEDTAMYYCVRGREAYYRYDGGYYAMDYWGQGTSVTVSS VL: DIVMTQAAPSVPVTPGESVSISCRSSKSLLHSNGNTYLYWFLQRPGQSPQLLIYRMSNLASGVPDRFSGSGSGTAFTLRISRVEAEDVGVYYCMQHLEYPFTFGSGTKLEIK
unitString: %
testResult: 68
//
binder: anti-CCR8 mAb 1-9 (antibody, V domains shown, Murine hybridoma mAb) VH: EVQLVESGGGLVQPKGSLKLSCAASGFTFNAYAMNWVRQAPGKGLEWLARIRSKSNNYATYYADSVKDRFTISRDDSQSMFYLQMNNLKSEDTAMYYCVRGREAYYRYDGGYYAMDYWGQGTSVTVSS VL: EIVMTQAALSAPVTPGESVSMSCRSSKSLLHSNGNTYLYWFLQRPGQSPQLLIYRMSNLASGVPDRFSGSGSGTAFTLRISRVEAEDVGVYYCMQHLEYPFTFGSGTKLEIK
unitString: %
testResult: 36
